assay.procedure: Pharmacokinetic studies of certain compounds in female Balb/c mice (Example 5)
Format: in vivo
experimental.parameters: mouse, plasma, I-29 IV 1.48 mg/kg
readout.kind: MRT last (min)
Provide only the numeric value, understood in min.

Task: Which MRT last reading was recorded for the compound CC(C)Cc1sc(Nc2ncc(-c3cccs3)cc2C(=O)O)nc1C1CCC(F)(F)CC1 [Compound I-29] ?
Result: 18.2

---

assay.procedure: Pharmacokinetic studies of certain compounds in female Balb/c mice (Example 5)
Assay type: in vivo
experimental.parameters: mouse, plasma, I-29 IV 1.48 mg/kg
readout.kind: clearance

Task: Which clearance reading was recorded for the compound CC(C)Cc1sc(Nc2ncc(-c3cccs3)cc2C(=O)O)nc1C1CCC(F)(F)CC1 [Compound I-29] ?
Result: 110 mL/min/kg
